Measured gcPBM binding intensity (ln), listed per entry.
- Test system: PfHDP1 homeodomain (GST-tagged)
- assayExplanation: gcPBM binding intensity (ln(normalized median fluorescence intensity)); higher = stronger DNA binding
Whole data set: some 25,000 sequences, median “ln(normalized median fluorescence intensity)” near 6.7, cut for the highest 2% near 10. Shown is part of a subset that was picked to be rich in the highest values.
Hey, just send me the number, nothing else.

- seqString: "CTAATCGTGCACAACTGTACATTTGTCAAGGGCAAT [XGTACX_site8662]"
  recordedResult: 10.8
- seqString: "ATATATGTAACATATTGTACATATATGTATGTATGT [XGTACX_site3281]"
  recordedResult: 6.97
- seqString: "ATAAATATGTAAAAAACATGCAAAAAATTAAAGACA [TGCATGCA_site912]"
  recordedResult: 7.22

input: Name the reported gcPBM binding intensity (ln) value associated with the sequence TTTTTTTTTCCGTGTTGTACAAAAAAAAAGATTTTG [XGTACX_site3925]
output: 6.21

input: Name the reported gcPBM binding intensity (ln) value associated with the sequence GGACAAGTTAAACGCACACAAATATATACCCCCATA [CACACA_site4996]
output: 7.91

input: Name the reported gcPBM binding intensity (ln) value associated with the sequence ATGAAAAAAAGACATGCATGTAAATATAAATTGCTT [TGCATGCA_site504]
output: 6.68
